# experimental_protocol: molar heat capacity at constant pressure
# assay_setup: 298 K; 101.33 kPa; Crystal 2; Large sample (1 g) DSC
quantity_measured: molar heat capacity at constant pressure (J/K/mol)
Form entry: value (J/K/mol) — number only.

Briefly, molar heat capacity at constant pressure measured for CCCCCCCCCCCCCCCC(N)=O [hexadecanamide] : 394.3

Field molar heat capacity at constant pressure (entry CCCCCCCCCC(N)=O [decanamide] ) reads 272.4

get_value(item= CCCCC(N)=O [pentanamide] , readout=molar heat capacity at constant pressure) returns 190.3

response.value for CCCCCCCC(N)=O [octanamide] (field: molar heat capacity at constant pressure) = 245.1
